Can you tell me AUC for the items I'm about to list?
# procedure details: Compound was evaluated for its pharmacokinetic parameter maximum area under curve AUCmax; note: test concentration or dose not given here
# Type: ADME, organism-based
# Design: time AUCmax
# study conditions: rat, in vivo
Just the number please, in ng·h/mL, no unit attached.

Entry under review: N=C(N)c1ccc(CNC(=O)[C@@H]2CCCN2C(=O)[C@H](NS(=O)(=O)O)C(c2ccccc2)c2ccccc2)cc1.O=C(O)C(F)(F)F . Reported AUC? 35000

Next entry: N=C(N)c1ccc(CNC(=O)[C@@H]2CCCN2C(=O)[C@H](Nc2ccccc2)C(c2ccccc2)c2ccccc2)cc1.O=C(O)C(F)(F)F 53000

Next entry: N=C(N)c1ccc(CNC(=O)[C@@H]2CCCN2C(=O)[C@H](NCC(=O)O)C(c2ccccc2)c2ccccc2)cc1.O=C(O)C(F)(F)F 120000

Next entry: COC(=O)N[C@@H](C(=O)N1CCC[C@H]1C(=O)NCc1ccc(C(=N)N)cc1)C(c1ccccc1)c1ccccc1.O=C(O)C(F)(F)F 594000

Values compiled from ChEMBL document CHEMBL1135262.
